- TESTED_SYSTEM: T1, C-terminal domain-deleted human Regnase-1 (amino acids 1 to 546) with N-terminal FLAG tag and C-terminal BirA … (human, UniProt Q5D1E8 1-546)
- T1 sequence: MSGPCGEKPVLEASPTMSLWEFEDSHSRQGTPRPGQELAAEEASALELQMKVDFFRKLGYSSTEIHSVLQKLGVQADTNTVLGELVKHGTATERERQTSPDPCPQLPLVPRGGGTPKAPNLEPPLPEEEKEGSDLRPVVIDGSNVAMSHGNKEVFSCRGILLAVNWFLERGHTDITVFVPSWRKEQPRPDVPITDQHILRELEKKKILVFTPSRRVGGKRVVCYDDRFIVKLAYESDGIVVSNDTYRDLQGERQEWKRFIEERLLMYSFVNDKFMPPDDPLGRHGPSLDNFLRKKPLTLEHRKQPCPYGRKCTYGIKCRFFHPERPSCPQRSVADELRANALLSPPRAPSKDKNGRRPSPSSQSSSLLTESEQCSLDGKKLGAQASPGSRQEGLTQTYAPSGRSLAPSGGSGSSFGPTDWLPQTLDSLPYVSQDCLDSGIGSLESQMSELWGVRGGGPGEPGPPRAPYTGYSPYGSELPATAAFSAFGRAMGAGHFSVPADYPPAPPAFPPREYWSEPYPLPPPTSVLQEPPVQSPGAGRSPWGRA
- MEASUREMENT_NOTES: cell-based or functional assay
Positions of bridges follow the written chain, without caps; N, C: chain ends. Non-standard residues stand in square brackets, D forms with d. *: point of attachment. NMeA = CN[C@@H](C)C(=O)O; Pyrrolidide = C1CCN(*)C1; dNMeA = CN[C@H](C)C(=O)O
Below, each entry is listed with its recorded 50% inhibition concentration, Regnase-1 phosphorylation by IKKβ (AlphaScreen).
RECORDED_METRIC: 50% inhibition concentration, Regnase-1 phosphorylation by IKKβ (AlphaScreen) (µM)

binder="XGYANSWYNIWD (HELM PEPTIDE1{[meA].G.Y.A.N.S.W.Y.N.I.W.D.[C1CCN([*:1])C1]}$PEPTIDE1,PEPTIDE1,1:R1-12:R3$$$V2.0; SMILES CC[C@H](C)[C@@H]1NC(=O)[C@H](CC(N)=O)NC(=O)[C@H](Cc2ccc(O)cc2)NC(=O)[C@H](Cc2c[nH]c3ccccc23)NC(=O)[C@H](CO)NC(=O)[C@H](CC(N)=O)NC(=O)[C@H](C)NC(=O)[C@H](Cc2ccc(O)cc2)NC(=O)CNC(=O)[C@H](C)N(C)C(=O)C[C@@H](C(=O)N2CCCC2)NC(=O)[C@H](Cc2c[nH]c3ccccc23)NC1=O) [PP2]" censoring_operator== obs_value=14
binder="[dNMeA]KHASAWYRIWD-Pyrrolidide (lactam N-12) [PP3]" censoring_operator== obs_value=8.3
binder="XTSWYKVNWGQD (HELM PEPTIDE1{[meA].T.S.W.Y.K.V.N.W.G.Q.D.[C1CCN([*:1])C1]}$PEPTIDE1,PEPTIDE1,1:R1-12:R3$$$V2.0; SMILES CC(C)[C@@H]1NC(=O)[C@H](CCCCN)NC(=O)[C@H](Cc2ccc(O)cc2)NC(=O)[C@H](Cc2c[nH]c3ccccc23)NC(=O)[C@H](CO)NC(=O)[C@H]([C@@H](C)O)NC(=O)[C@H](C)N(C)C(=O)C[C@@H](C(=O)N2CCCC2)NC(=O)[C@H](CCC(N)=O)NC(=O)CNC(=O)[C@H](Cc2c[nH]c3ccccc23)NC(=O)[C@H](CC(N)=O)NC1=O) [PP1]" censoring_operator=> obs_value=62.1
binder="[NMeA]YIWDFFGDLD-Pyrrolidide (lactam N-11) [PP4]" censoring_operator== obs_value=8.3
binder="XHSNAWYNIWD (HELM PEPTIDE1{[meA].H.S.N.A.W.Y.N.I.W.D.[C1CCN([*:1])C1]}$PEPTIDE1,PEPTIDE1,1:R1-11:R3$$$V2.0; SMILES CC[C@H](C)[C@@H]1NC(=O)[C@H](CC(N)=O)NC(=O)[C@H](Cc2ccc(O)cc2)NC(=O)[C@H](Cc2c[nH]c3ccccc23)NC(=O)[C@H](C)NC(=O)[C@H](CC(N)=O)NC(=O)[C@H](CO)NC(=O)[C@H](Cc2c[nH]cn2)NC(=O)[C@H](C)N(C)C(=O)C[C@@H](C(=O)N2CCCC2)NC(=O)[C@H](Cc2c[nH]c3ccccc23)NC1=O) [PP5]" censoring_operator== obs_value=20.4
binder="XPNSSWFKIWD (HELM PEPTIDE1{[C[C@H](C(=O)[*:2])N(C)[*:1]].P.N.S.S.W.F.K.I.W.D.[C1CCN([*:1])C1]}$PEPTIDE1,PEPTIDE1,1:R1-11:R3$$$V2.0; SMILES CC[C@H](C)[C@@H]1NC(=O)[C@H](CCCCN)NC(=O)[C@H](Cc2ccccc2)NC(=O)[C@H](Cc2c[nH]c3ccccc23)NC(=O)[C@H](CO)NC(=O)[C@H](CO)NC(=O)[C@H](CC(N)=O)NC(=O)[C@@H]2CCCN2C(=O)[C@@H](C)N(C)C(=O)C[C@@H](C(=O)N2CCCC2)NC(=O)[C@H](Cc2c[nH]c3ccccc23)NC1=O) [PP6]" censoring_operator== obs_value=20.3
